The origin of these recorded values is paper PMC7339578.

Give Extracted samples at 8 °C for 18 h, RE for every item shown.
- experimental protocol: Stability tests of analytes in rat plasma QC samples
- Assay type: in vitro ADME
- applied conditions: rat plasma, nominal conc. 20 nM

I am curious: what Extracted samples at 8 °C for 18 h, RE value has been reported for O=C1CCC[C@@H]2[C@H]3CCCN4CCC[C@@H](CN12)[C@@H]34 [Compound A1, Matrine] ?
13.23%

I am curious: what Extracted samples at 8 °C for 18 h, RE value has been reported for CC(C)=CCC[C@](C)(O[C@@H]1O[C@H](CO[C@@H]2OC[C@H](O)[C@H](O)[C@H]2O)[C@@H](O)[C@H](O)[C@H]1O)[C@H]1CC[C@]2(C)[C@@H]1[C@H](O)C[C@@H]1[C@@]3(C)CC[C@H](O[C@@H]4O[C@H](CO)[C@@H](O)[C@H](O)[C@H]4O[C@@H]4O[C@H](CO)[C@@H](O)[C@H](O)[C@H]4O)C(C)(C)[C@@H]3CC[C@]12C [Compound D4, Ginsenoside Rb2] ?
-12.48%

====

Give Short-term stability at room temperature for 6 h, Mean±SD for every item shown.
- experimental protocol: Stability tests of analytes in rat plasma QC samples
- Type: in vitro ADME
- applied conditions: rat plasma, nominal conc. 100 nM
# output: number + unit

I am curious: what Short-term stability at room temperature for 6 h, Mean±SD value has been reported for `O=C1CCC[C@@H]2[C@H]3CCCN4CCC[C@@H](CN12)[C@@H]34` ?
100.30 ± 2.84 nM

I am curious: what Short-term stability at room temperature for 6 h, Mean±SD value has been reported for CC(C)(O)[C@@H]1CC[C@](C)([C@H]2[C@@H](O)C[C@@]3(C)[C@@H]4C[C@H](O)[C@H]5C(C)(C)[C@@H](O[C@@H]6OC[C@@H](O)[C@H](O)[C@H]6O[C@@H]6O[C@H](CO)[C@@H](O)[C@H](O)[C@H]6O)CC[C@@]56C[C@@]46CC[C@]23C)O1 [Compound B3, Astragaloside III] ?
91.15 ± 3.72 nM

I am curious: what Short-term stability at room temperature for 6 h, Mean±SD value has been reported for CC(C)=CCC[C@](C)(O[C@@H]1O[C@H](CO[C@@H]2OC[C@H](O)[C@H](O)[C@H]2O)[C@@H](O)[C@H](O)[C@H]1O)[C@H]1CC[C@]2(C)[C@@H]1[C@H](O)C[C@@H]1[C@@]3(C)CC[C@H](O[C@@H]4O[C@H](CO)[C@@H](O)[C@H](O)[C@H]4O[C@@H]4O[C@H](CO)[C@@H](O)[C@H](O)[C@H]4O)C(C)(C)[C@@H]3CC[C@]12C [Compound D4, Ginsenoside Rb2] ?
88.84 ± 2.61 nM

I am curious: what Short-term stability at room temperature for 6 h, Mean±SD value has been reported for CC(C)=CCC[C@](C)(O)[C@H]1CC[C@]2(C)[C@@H]1[C@H](O)C[C@@H]1[C@@]3(C)CC[C@H](O)C(C)(C)[C@@H]3[C@@H](O[C@@H]3O[C@H](CO)[C@@H](O)[C@H](O)[C@H]3O[C@@H]3O[C@H](CO)[C@@H](O)[C@H](O)[C@H]3O)C[C@]12C [Compound C7, Ginsenoside Rf] ?
96.37 ± 9.64 nM

I am curious: what Short-term stability at room temperature for 6 h, Mean±SD value has been reported for CC(C)=CCC[C@](C)(O)[C@H]1CC[C@]2(C)[C@@H]1[C@H](O)C[C@@H]1[C@@]3(C)CC[C@H](O)C(C)(C)[C@@H]3[C@@H](O[C@@H]3O[C@H](CO)[C@@H](O)[C@H](O)[C@H]3O[C@@H]3O[C@@H](C)[C@H](O)[C@@H](O)[C@H]3O)C[C@]12C [Compound C5, Ginsenoside Rg2] ?
87.52 ± 0.79 nM

I am curious: what Short-term stability at room temperature for 6 h, Mean±SD value has been reported for CC(C)=CCC[C@](C)(O)[C@H]1CC[C@]2(C)[C@@H]1[C@H](O)C[C@@H]1[C@@]3(C)CC[C@H](O)C(C)(C)[C@@H]3[C@@H](O[C@@H]3O[C@H](CO)[C@@H](O)[C@H](O)[C@H]3O)C[C@]12C [Compound C1, Ginsenoside Rh1] ?
92.25 ± 8.56 nM

I am curious: what Short-term stability at room temperature for 6 h, Mean±SD value has been reported for CC(C)=CCC[C@](C)(O[C@@H]1O[C@H](CO)[C@@H](O)[C@H](O)[C@H]1O)[C@H]1CC[C@]2(C)[C@@H]1[C@H](O)C[C@@H]1[C@@]3(C)CC[C@H](O[C@@H]4O[C@H](CO)[C@@H](O)[C@H](O)[C@H]4O[C@@H]4O[C@H](CO)[C@@H](O)[C@H](O)[C@H]4O)C(C)(C)[C@@H]3CC[C@]12C [Compound D2, Ginsenoside Rd] ?
96.61 ± 5.06 nM

I am curious: what Short-term stability at room temperature for 6 h, Mean±SD value has been reported for CC(C)=CCC[C@](C)(O[C@@H]1O[C@H](CO[C@@H]2O[C@H](CO)[C@@H](O)[C@H](O)[C@H]2O)[C@@H](O)[C@H](O)[C@H]1O)[C@H]1CC[C@]2(C)[C@@H]1[C@H](O)C[C@@H]1[C@@]3(C)CC[C@H](O[C@@H]4O[C@H](CO)[C@@H](O)[C@H](O)[C@H]4O[C@@H]4O[C@H](CO)[C@@H](O)[C@H](O)[C@H]4O)C(C)(C)[C@@H]3CC[C@]12C [Compound D5, Ginsenoside Rb1] ?
91.65 ± 3.42 nM
